system: CCRF-CEM; assay: NCI tumour cell line growth inhibition, 48 h
Calls of active or inactive are those of the source. Cut-off read from the data, not from the text of the source: active = GI50 up to about 1.1 µM and inactive = higher.
Known GI50 of a selection of compounds
observation-type: GI50

INSERT INTO measurements (compound, assay_result) VALUES
  ('Cc1cn([C@@H]2O[C@H](CO)[C@@H](O)[C@@H]2O)c(=O)[nH]c1=O', '> 1000 µM (inactive)'),
  ('CC[C@@]1(O)C(=O)OCc2c1cc1n(c2=O)Cc2cc3ccccc3nc2-1', '< 0.01 µM (active)'),
  ('O=C1N[C@H]2[C@H](O)[C@H](O)[C@@H](O)[C@H](O)[C@@H]2c2cc3c(c(O)c21)OCO3', '0.0324 µM (active)'),
  ('Nc1ncnc2c1ccn2C/C=C/CO', '> 100 µM (inactive)'),
  ('CC(SC(=S)N1CCOCC1)c1cc2oc(=O)n(C)c2cc1Cl (configuration not stated)', '19.8 µM (inactive)'),
  ('O=c1oc2ccccc2[n+]([O-])c1-c1ccccc1', '> 100 µM (inactive)'),
  ('CCc1n[nH]c(=O)n1N1C(=O)CCC1=O', '> 100 µM (inactive)'),
  ('O=c1[nH]c2cc([N+](=O)[O-])c(Nc3c4ccccc4nc4ccccc34)c([N+](=O)[O-])c2[nH]1', '4.42 µM (inactive)'),
  ('CC(=O)NNc1nc(C)c(C(/C=C/c2ccccc2O)=N/N=C(N)N)s1', '> 100 µM (inactive)'),
  ('COc1cc2c(c(O)c1O)-c1ccc(OC)c(=O)cc1C(NC(C)=O)CC2 (configuration not stated)', '3.49 µM (inactive)'),
  ('COC(=O)/C=C\C(C#N)(C#N)/N=C/c1sccc1C', '1 µM (active)'),
  ('C(=N\NC1=NCCN1)/c1ccc(-c2cn3cc(/C=N/NC4=NCCN4)ccc3n2)cc1', '2.74 µM (inactive)');

* * *

test system: HCT-116; assay: NCI tumour cell line growth inhibition, 48 h
Activity calls are given as the source filed them. Cut-off read from the data, not from the text of the source: active = GI50 up to about 1.1 µM and inactive = higher.
observation-type: GI50

INSERT INTO results (compound, assay_result) VALUES
  ('CC12CCC(CC1=O)C2(C)CCC(N)=O (stereo unspecified)', '> 100 µM (inactive)'),
  ('NNC(=O)CC(=O)Nc1ccccc1F', '> 100 µM (inactive)'),
  ('CCc1n[nH]c(=O)n1/N=C/c1c(O)ccc2ccccc12', '> 100 µM (inactive)'),
  ('O=C(Cc1ccc(F)cc1)NC1=C(Cl)C(=O)c2ccccc2C1=O', '2.36 µM (inactive)'),
  ('OC(CC(O)(C(F)(F)F)C(F)(F)F)c1ccc(C(O)CC(O)(C(F)(F)F)C(F)(F)F)cc1 (stereo unspecified)', '11.8 µM (inactive)'),
  ('CC(C)C(=O)/C=C/c1ccc(Cl)c(Cl)c1', '3.69 µM (inactive)'),
  ('N=C(N)N/N=C/c1c(-c2cc([N+](=O)[O-])c(Cl)cc2Cl)nc2n1CCS2', '5.01 µM (inactive)'),
  ('O=c1c2ncn(COCCCl)c2n(-c2ccccc2)c(=S)n1-c1ccccc1', '> 100 µM (inactive)'),
  ('CC(C)(C)OC(=O)c1ccc(NCc2cc(O)ccc2O)cc1', '3.49 µM (inactive)'),
  ('CCOC(=O)CC[C@H](NC(=O)c1ccc(CNc2nc3cc(C(F)(F)F)ccc3nc2C(=O)OCC)cc1)C(=O)OCC', '> 56.1 µM (inactive)'),
  ('CN(C)c1ccc(C2CC(=O)C(C#N)=C(c3ccccc3)NN2C)cc1 (stereo unspecified)', '11.5 µM (inactive)'),
  ('COc1ccc(C/C(=N/O)C(=O)NCCc2cc(Br)c(OCCCN(C)C)c(Br)c2)cc1Br', '14.5 µM (inactive)'),
  ('OC(C1CO1)C(O)C1CO1 (stereo unspecified)', '45.8 µM (inactive)'),
  ('CN(C)C=C1C(=O)N(C)C(=O)N(C)C1=O', '> 100 µM (inactive)'),
  ('NC(=O)NC(=O)c1cccc(C(=O)NC(N)=O)n1', '> 100 µM (inactive)'),
  ('COC(=O)C(CCCCN)NC(=O)C(CCCCN)NC(=O)C(CCCCN)NC(C)=O.Cc1ccc(C(=O)Nc2ccc(S(=O)(=O)O)c3cc(S(=O)(=O)O)cc(S(=O)(=O)O)c23)cc1NC(=O)c1cccc(NC(=O)Nc2cccc(C(=O)Nc3cc(C(=O)Nc4ccc(S(=O)(=O)O)c5cc(S(=O)(=O)O)cc(S(=O)(=O)O)c45)ccc3C)c2)c1', '> 50 µM (inactive)'),
  ('O=c1c2cc(Cl)ccc2sc2cccc(Cl)c12', '> 100 µM (inactive)'),
  ('CCCCCCCC(=O)OCC1OC(OC)C(NC(=O)N(CCCl)N=O)C(O)C1O (stereo unspecified)', '3.22 µM (inactive)'),
  ('CC(C)(C)NCCC(O)c1cc(C(F)(F)F)nc2c(C(F)(F)F)cccc12 (stereo unspecified)', '5.07 µM (inactive)'),
  ('Cc1ccc([C@H]2CC(=O)C[C@H](c3ccc(C)cc3)C23C(=O)c2ccccc2C3=O)cc1', '34.6 µM (inactive)'),
  ('O=C(Nc1ccc(Cl)cc1)c1cc2c(cc1Cl)Sc1nccn1S2(=O)=O', '34.6 µM (inactive)');
